ASSAY_PROTOCOL: Antagonist activity at rat vasopressin receptor
Numbered stars: 1 amine (or outer) side, 2 acyl side, 3 side chain; on linkers, the order of the positions; unused ones are H or OH. Bridge positions count the residues as written; N and C are the ends. Peptide text beside a SMILES is read from it. X1 = O=C(CC1(S[*:2])CCCCC1)[*:1]; X3 = CCC(CC)(CC(=O)[*:1])S[*:2]; X2 = CC(C)(CC(=O)[*:1])S[*:2]
Quick rule for you: pA2 at 7 or higher means condition met, lower means condition not met.

The examples below pair each entry with its known result.
INSERT INTO measurements (molecule, class_label) VALUES
  ('CC[C@H](C)[C@@H]1NC(=O)[C@H](Cc2ccc(O)cc2)NC(=O)CC(C)(C)SSC[C@@H](C(=O)N2CCC[C@H]2C(=O)N[C@@H](CC(C)C)C(=O)NCC(N)=O)NC(=O)[C@H](CC(N)=O)NC(=O)[C@H]([C@@H](C)O)NC1=O (YITNCPLG-NH2; linker N-5 via X2)', 'condition not met'),
  ('CC[C@H](C)[C@@H]1NC(=O)[C@H](Cc2ccc(O)cc2)NC(=O)CC(CC)(CC)SSC[C@@H](C(=O)N2CCC[C@H]2C(=O)N[C@@H](CC(C)C)C(=O)NCC(N)=O)NC(=O)[C@H](CC(N)=O)NC(=O)[C@H]([C@@H](C)O)NC1=O (YITNCPLG-NH2; linker N-5 via X3)', 'condition not met'),
  ('CC[C@H](C)[C@@H]1NC(=O)[C@H](Cc2ccc(O)cc2)NC(=O)CC2(CCCCC2)SSC[C@@H](C(=O)N2CCC[C@H]2C(=O)N[C@@H](CC(C)C)C(=O)NCC(N)=O)NC(=O)[C@H](CC(N)=O)NC(=O)[C@H]([C@@H](C)O)NC1=O (YITNCPLG-NH2; linker N-5 via X1)', 'condition not met');

In the following, a different molecule is considered.
Could you verify whether the entry CC[C@H](C)[C@@H]1NC(=O)[C@H](Cc2ccc(OC)cc2)NC(=O)CC(C)(C)SSC[C@@H](C(=O)N2CCC[C@H]2C(=O)N[C@@H](CC(C)C)C(=O)NCC(N)=O)NC(=O)[C@H](CC(N)=O)NC(=O)[C@H](CCC(N)=O)NC1=O (Y(Me)IQNCPLG-NH2; linker N-5 via X2) shows pA2 of no less than 7?
condition met

---

TARGET: Oxytocin receptor (Rattus norvegicus, UniProt P70536)
Sequence (P70536 whole entry): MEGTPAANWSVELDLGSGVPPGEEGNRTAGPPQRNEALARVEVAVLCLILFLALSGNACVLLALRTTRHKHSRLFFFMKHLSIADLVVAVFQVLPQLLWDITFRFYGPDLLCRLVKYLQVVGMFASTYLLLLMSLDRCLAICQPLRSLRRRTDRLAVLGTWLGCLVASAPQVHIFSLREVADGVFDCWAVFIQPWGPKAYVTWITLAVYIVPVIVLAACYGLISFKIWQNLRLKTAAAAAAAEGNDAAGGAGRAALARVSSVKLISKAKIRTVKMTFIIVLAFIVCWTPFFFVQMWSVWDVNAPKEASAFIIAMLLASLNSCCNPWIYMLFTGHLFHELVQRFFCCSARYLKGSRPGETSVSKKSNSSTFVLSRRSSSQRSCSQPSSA
ASSAY_PROTOCOL: Antagonist activity at oxytocin receptor in rat uterus pretreated with diethylstilbestrol compound treated 1 min prior to oxytocin addition in presence of 0.5 mM Mg2+
Type: tissue-based
SETUP_CONDITIONS: read-out: pA2 (converted)
Numbered stars: 1 amine (or outer) side, 2 acyl side, 3 side chain; on linkers, the order of the positions; unused ones are H or OH. Bridge positions count the residues as written; N and C are the ends. Square brackets hold non-standard residues; d marks the D form. Peptide text beside a SMILES is read from it. * marks the point of attachment. X1 = O=C(CC1(S[*:2])CCCCC1)[*:1]; X3 = CCC(CC)(CC(=O)[*:1])S[*:2]; X2 = CC(C)(CC(=O)[*:1])S[*:2]; X4 = NC(=O)NC(=O)CN*; Mpa = O=C(O)CCS
REPORTED_METRIC: Kb (nM)
The reply should contain only the number, in nM.

INSERT INTO measurements (molecule, measure_unit, data_value) VALUES
  ('CC[C@H](C)[C@@H]1NC(=O)[C@H](Cc2ccc(O)cc2)NC(=O)CC(C)(C)SSC[C@@H](C(=O)N2CCC[C@H]2C(=O)N[C@@H](CC(C)C)C(=O)NCC(N)=O)NC(=O)[C@H](CC(N)=O)NC(=O)[C@H](CCC(N)=O)NC1=O (YIQNCPLG-NH2; linker N-5 via X2)', 'nM', 2340),
  ('CC[C@H](C)[C@@H]1NC(=O)[C@H](Cc2ccc(O)cc2)NC(=O)CC2(CCCCC2)SSC[C@@H](C(=O)N2CCC[C@H]2C(=O)N[C@@H](CC(C)C)C(=O)NCC(N)=O)NC(=O)[C@H](CC(N)=O)NC(=O)[C@H]([C@@H](C)O)NC1=O (YITNCPLG-NH2; linker N-5 via X1)', 'nM', 15.5),
  ('CC[C@H](C)[C@@H]1NC(=O)[C@H](Cc2ccc(OC)cc2)NC(=O)CC(C)(C)SSC[C@@H](C(=O)N2CCC[C@H]2C(=O)N[C@@H](CC(C)C)C(=O)NCC(N)=O)NC(=O)[C@H](CC(N)=O)NC(=O)[C@H]([C@@H](C)O)NC1=O (Y(Me)ITNCPLG-NH2; linker N-5 via X2)', 'nM', 16.2),
  ('CC[C@H](C)[C@@H]1NC(=O)[C@H](Cc2ccc(OC)cc2)NC(=O)CCSSC[C@@H](C(=O)N2CCC[C@H]2C(=O)N[C@@H](CC(C)C)C(=O)NCC(=O)NC(N)=O)NC(=O)[C@H](CC(N)=O)NC(=O)[C@H](CCC(N)=O)NC1=O ([Mpa]Y(Me)IQNCPL-X4; disulfide 1-6)', 'nM', 245),
  ('CC[C@H](C)[C@@H]1NC(=O)[C@H](Cc2ccc(O)cc2)NC(=O)CC(CC)(CC)SSC[C@@H](C(=O)N2CCC[C@H]2C(=O)N[C@@H](CC(C)C)C(=O)NCC(N)=O)NC(=O)[C@H](CC(N)=O)NC(=O)[C@H](CCC(N)=O)NC1=O (YIQNCPLG-NH2; linker N-5 via X3)', 'nM', 151);

Consider the additional molecule presented here.
Measured Kb, CC[C@H](C)[C@@H]1NC(=O)[C@H](Cc2ccc(O)cc2)NC(=O)CC(CC)(CC)SSC[C@@H](C(=O)N2CCC[C@H]2C(=O)N[C@@H](CC(C)C)C(=O)NCC(N)=O)NC(=O)[C@H](CC(N)=O)NC(=O)[C@H]([C@@H](C)O)NC1=O (YITNCPLG-NH2; linker N-5 via X3) : 43.7
